From: paper PMC12973313

System: Galleria mellonella larvae
test: G. mellonella toxicity assay
Type: in vivo
measurement_context: out of 10; 10 µL of 5 mM in H2O/EtOH 19:1, 37 °C
recorded_metric: Galleria moth larvae survived Day 2

Task: Which Galleria moth larvae survived Day 2 value is on record for O=C(Nc1ccc(C(F)(F)F)cc1)N[C@@H](Cc1ccccc1)C(=O)O ?
Result: 4

Task: Field entry: CC(C)CC(NC(=O)Nc1ccc(C(F)(F)F)cc1)C(=O)O (centres unmarked) [SSA 5]
Result: 9

Task: Field entry: O=C(O)CNC(=O)Nc1ccc(C(F)(F)F)cc1
Result: 9

---
Task: Which Galleria moth larvae survived Day 2 value is on record for CC(C)CC(NC(=O)Nc1ccc(C(F)(F)F)cc1)C(=O)O (centres unmarked) [SSA 3] ?
Result: 9

Task: Field entry: O=C(Nc1ccc(C(F)(F)F)cc1)N[C@H](Cc1ccccc1)C(=O)O
Result: 9
